Items are presented alongside their recorded GI50.
System: IGROV-1
Assay: NCI tumour cell line growth inhibition, 48 h
The source made the active and inactive calls. No stated cut-off is given here; in the data, active = GI50 up to about 1.1 µM and inactive = higher.

Prompt: # GI50 lookup, item C=CC1(NS(=O)(=O)c2ccc(C)cc2)CCC(C(C)(C)C)CC1 (centres undefined)
Response: 76.2 µM (inactive)

Prompt: # GI50 lookup, item O=C(CC(C(=O)O)N1CCOCC1)c1ccccc1 (centres undefined)
Response: 26.2 µM (inactive)

Prompt: # GI50 lookup, item CCCCC(=O)Nc1ccc2cc(C(=O)OC)c(=O)[nH]c2n1
Response: > 100 µM (inactive)

Prompt: # GI50 lookup, item O=C1OC(c2ccccc2)(c2ccccc2)c2ccc3ccc(F)cc3c21
Response: > 100 µM (inactive)

Prompt: # GI50 lookup, item NC(=O)CC(N/C=C1/N=C(c2ccccc2)OC1=O)C(=O)O (centres undefined)
Response: > 100 µM (inactive)

----------
Tested on: NCI-H522
Assay: NCI tumour cell line growth inhibition, 48 h
Activity calls are given as the source filed them. Cut-off read from the data, not from the text of the source: active = GI50 up to about 1.1 µM and inactive = higher.
Items are presented alongside their recorded GI50.

A selection of reference data follows.
>  <COMPOUND>
O=S1(=O)C(c2ccccc2)=C(O)c2ccccc21

>  <ENDPOINT_VALUE>
> 100 µM (inactive)

$$$$
>  <COMPOUND>
COC1C(O)C(O[C@H]2CC[C@@]3(C)C(CC[C@@H]4[C@@H]3CC[C@]3(C)[C@@H](C(C)OC5OC(CO)C(O)C(O)C5O)CC[C@]43O)C2)OC(C)C1OC1OC(CO)C(O)C(O)C1O (some centres undefined)

>  <ENDPOINT_VALUE>
> 100 µM (inactive)

$$$$
>  <COMPOUND>
O=C1c2ccccc2C(=O)c2c(NC(=O)C(Cl)CCl)cccc21 (centres undefined)

>  <ENDPOINT_VALUE>
2.16 µM (inactive)

$$$$
>  <COMPOUND>
Cc1ccc([N+](=O)[O-])cc1NC(=O)C(=O)Cc1occc(=O)c1O

>  <ENDPOINT_VALUE>
> 100 µM (inactive)

$$$$
>  <COMPOUND>
c1ccc2c(c1)[C@@H]1O[C@@H]1[C@@]13O[C@@]21[C@H]1O[C@H]1c1ccccc13

>  <ENDPOINT_VALUE>
10.8 µM (inactive)

$$$$
>  <COMPOUND>
Cc1cccc(C)c1NC(=O)C(=O)C(C(=O)c1ccccc1-c1ccccc1)C1OC(=O)c2ccccc21 (centres undefined)

>  <ENDPOINT_VALUE>
10.9 µM (inactive)

$$$$

Prompt: Give NCI-H522 GI50 for Cc1cn(CC2=NCCCN2)c(=O)[nH]c1=O
Response: > 100 µM (inactive)

Prompt: Give NCI-H522 GI50 for CNc1ncc(-c2nnnn2-c2ccccc2)c(CN(C)C)n1
Response: > 100 µM (inactive)

Prompt: Give NCI-H522 GI50 for CCCNC(=S)N/N=C1\C(=O)Nc2ccccc21
Response: > 100 µM (inactive)

----------
Items are presented alongside their recorded GI50.
Test system: Hs-578T
Test: NCI tumour cell line growth inhibition, 48 h
Activity calls are given as the source filed them. Cut-off read from the data, not from the text of the source: active = GI50 up to about 1.1 µM and inactive = higher.

A selection of reference data follows.
>  <COMPOUND>
CCOC(=O)C(=[N+]=[N-])C(=O)CN1C(=O)C2CC(C)=C(C)CC2C1O (stereo not drawn)

>  <ENDPOINT>
GI50

>  <ENDPOINT_VALUE>
> 100 µM (inactive)

$$$$
>  <COMPOUND>
O=C1NC(N2CCCCC2)=N/C1=C\c1ccco1

>  <ENDPOINT>
GI50

>  <ENDPOINT_VALUE>
> 100 µM (inactive)

$$$$
>  <COMPOUND>
Nc1nc2c(ncn2Cc2ccccc2CO)c(=O)[nH]1

>  <ENDPOINT>
GI50

>  <ENDPOINT_VALUE>
> 100 µM (inactive)

$$$$

Prompt: # GI50 lookup, item CCCCCC/C=C\CCCCCCCCCc1c(O)c(OC)cc(O)c1CN(C)C
Response: 2.7 µM (inactive)

Prompt: # GI50 lookup, item CN(Cc1ccccc1)/C(=N\C#N)N(Cc1ccccc1)Cc1ccccc1
Response: 34.8 µM (inactive)

Prompt: # GI50 lookup, item FC(F)(F)c1nc2nc(Cl)c(Cl)nc2n1CCCN1CCOCC1
Response: 33.7 µM (inactive)

Prompt: # GI50 lookup, item COc1ccc(-c2cc3ccccc3oc2=O)cc1OC
Response: > 100 µM (inactive)

Prompt: # GI50 lookup, item CN(C)CCCCN1c2ccccc2Sc2ccc(C(=O)c3ccccc3)cc21
Response: 2.22 µM (inactive)

Prompt: # GI50 lookup, item CNc1ncc(-c2nnnn2-c2ccccc2)c(CN(C)C)n1
Response: > 100 µM (inactive)

Prompt: # GI50 lookup, item C=C1C(=O)O[C@H]2C3C(=C(C)CC[C@@H]12)C(=O)[C@@H]1OC31C (stereo partly drawn)
Response: 3.03 µM (inactive)

Prompt: # GI50 lookup, item CCOP(=O)(OCC)/C(C#N)=C/c1ccc(-c2cc(C(F)(F)F)cc(C(F)(F)F)c2)o1
Response: 25.1 µM (inactive)

Prompt: # GI50 lookup, item CC(C)(C)OC(=O)NC1CCCC1C(=O)C1=CCCC1 (stereo not drawn)
Response: 44 µM (inactive)

----------
Items are presented alongside their recorded GI50.
System: KM-20L2
Test: NCI tumour cell line growth inhibition, 48 h
Activity calls are given as the source filed them. Cut-off read from the data, not from the text of the source: active = GI50 up to about 1.1 µM and inactive = higher.

A selection of reference data follows.
>  <COMPOUND>
CC1CCN(CCC(=O)CC(c2ccccc2)c2c(O)c3ccccc3oc2=O)CC1 (stereo unspecified)

>  <ENDPOINT>
GI50

>  <ENDPOINT_VALUE>
> 100 µM (inactive)

$$$$
>  <COMPOUND>
Cc1cc(N(CCC#N)CCC#N)ccc1/C=C1/N=C(c2ccccc2)N(N)C1=O

>  <ENDPOINT>
GI50

>  <ENDPOINT_VALUE>
> 100 µM (inactive)

$$$$
>  <COMPOUND>
CC(=O)c1cc([N+](=O)[O-])ccc1OCC(=O)O

>  <ENDPOINT>
GI50

>  <ENDPOINT_VALUE>
> 100 µM (inactive)

$$$$
>  <COMPOUND>
CCN(CC)CCC1CC/C(=C\c2ccc(OC)cc2)C1=O (stereo unspecified)

>  <ENDPOINT>
GI50

>  <ENDPOINT_VALUE>
30.3 µM (inactive)

$$$$
>  <COMPOUND>
COC(=O)C(C#N)=C1c2ccccc2Oc2ccccc21

>  <ENDPOINT>
GI50

>  <ENDPOINT_VALUE>
91.2 µM (inactive)

$$$$

API: the following record is the query input.
Prompt: # GI50 lookup, item COc1ccc(-c2nc(SC)n(C3OC(COC(C)=O)C(OC(C)=O)C(OC(C)=O)C3OC(C)=O)c(=O)c2C#N)cc1 (stereo unspecified)
Response: 95.5 µM (inactive)

----------
Tested on: TK-10
Assay: NCI tumour cell line growth inhibition, 48 h
Active and inactive are the calls of the source. Cut-off read from the data, not from the text of the source: active = GI50 up to about 1.1 µM and inactive = higher.
Items are presented alongside their recorded GI50.

A selection of reference data follows.
>  <COMPOUND>
C=C1C(=O)O[C@@H]2CC(CO)=C([C@@H](C)CCCO)[C@@H](OC(=O)/C(C)=C\C)[C@H]12

>  <ENDPOINT_VALUE>
18.8 µM (inactive)

$$$$
>  <COMPOUND>
O=C(O)C(F)(F)C(F)(F)C(F)(F)C(F)(F)C(=O)O

>  <ENDPOINT_VALUE>
> 100 µM (inactive)

$$$$
>  <COMPOUND>
CCN(CC)CC1CCCCN1CC(=O)N1c2ccccc2C(=O)Nc2cccnc21 (stereo not given) [OTENZEPAD]

>  <ENDPOINT_VALUE>
> 100 µM (inactive)

$$$$

Prompt: # GI50 lookup, item Cc1cc(C)nc(NS(=O)(=O)c2ccc(NC(=O)c3cccc4c(=O)c5ccccc5[nH]c34)cc2)n1
Response: 25.9 µM (inactive)

Prompt: # GI50 lookup, item O=c1ccn(Cc2ccccc2CCl)c(=O)[nH]1
Response: 39.1 µM (inactive)

----------
System: NCI-H23
Experiment: NCI tumour cell line growth inhibition, 48 h
The source made the active and inactive calls. Rule as the data show it: active = GI50 up to about 1.1 µM and inactive = higher.
Please reply with one of these outcomes: 1.0 for active, 0.0 for inactive

Solved entries:
>  <MOLECULE>
CC[N+]1(C)CCC(O)(c2ccc(OC)cc2)C(C(=O)c2ccc(OC)cc2)C1 (stereo not given)

>  <STUDY_TARGET>
NCI-H23

>  <LABEL>
0.0

$$$$
>  <MOLECULE>
COc1ccc(C2c3cc4c(cc3OC(N3CCOCC3)C2C)OCO4)cc1 (stereo not given)

>  <STUDY_TARGET>
NCI-H23

>  <LABEL>
0.0

$$$$
>  <MOLECULE>
COc1ccc([C@@H]2C[C@@H]3C(=O)OC(=O)[C@@H]3c3c2c2ccccc2n3C)cc1

>  <STUDY_TARGET>
NCI-H23

>  <LABEL>
0.0

$$$$

Prompt: Tell me the assay call for CNCCN[C@@H]1c2cc3c(cc2[C@@H](c2cc(OC)c(O)c(OC)c2)[C@H]2C(=O)OC[C@@H]21)OCO3 please.
Response: 1.0

Prompt: Tell me the assay call for O=C(NCc1cccnc1)NCc1cccnc1 please.
Response: 0.0

Prompt: Tell me the assay call for CCCCCc1c(CCCC)c(O)nc2nc(NC(=O)CCCC)ccc12 please.
Response: 0.0

Prompt: Tell me the assay call for O=S(=O)(O)c1cc(O)c2c(O)c(/N=N/c3cccc4ccccc34)c(S(=O)(=O)O)cc2c1 please.
Response: 0.0

Prompt: Tell me the assay call for CN(C)CCCCN1c2ccccc2Sc2ccc(C(=O)c3ccccc3)cc21 please.
Response: 0.0

Prompt: Tell me the assay call for Nc1ccn(C2OC(CO)C(O)C2O)c(=O)n1 (stereo not given) please.
Response: 1.0

Prompt: Tell me the assay call for N#CC(/N=N/c1ccc(Cl)cc1)c1nc2ccccc2o1 (stereo not given) please.
Response: 0.0
